# protocol_description: Evaluation of stability in plasma
# Format: in vitro ADME
# experimental_context: disappearance half-life in human plasma, 37° C., final drug concentration 10 μM, HPLC
measure_name: half-life at 10 μM (min)

INSERT INTO measurements (compound, assay_value) VALUES
  ('COc1ccc(C(=N)N)cc1OCCOC(=O)c1ccc(C(=N)N2CCCC2)cc1 [Ex. 18, ditrifluoroacetate]', 1.1),
  ('CC(=N)N1CCC(Oc2ccc(C(=O)OCCOc3cccc(C(=N)N)c3)cc2)CC1 [Ex. 16, ditrifluoroacetate]', 1.7),
  ('N=C(N)c1cccc(OCCOC(=O)c2ccc(OC3CCN(C(=N)N)CC3)cc2)c1 [Ex. 17, ditrifluoroacetate]', 5.6),
  ('N=C(N)c1ccc(O)c(OCCOC(=O)c2ccc(C(=N)N3CCCC3)cc2)c1 [Ex. 6, ditrifluoroacetate]', 1.6),
  ('CC(C)COc1ccc(C(=N)N)cc1OCCOC(=O)c1ccc(C(=N)N2CCCC2)cc1 [Ex. 24, ditrifluoroacetate]', 0.7),
  ('N#CCOc1ccc(C(=N)N)cc1OCCOC(=O)c1ccc(C(=N)N2CCCC2)cc1 [Ex. 20, ditrifluoroacetate]', 2.1),
  ('N=C(N)c1ccc(OCCO)c(OCCOC(=O)c2ccc(C(=N)N3CCCC3)cc2)c1 [Ex. 13, ditrifluoroacetate]', 2.7),
  ('CC(=O)Oc1ccc(C(=N)N)cc1OCCOC(=O)c1ccc(C(=N)N2CCCC2)cc1 [Ex. 28, ditrifluoroacetate]', 3.5);

###

Reported pIC50 values are given for each entry in this list.
# system: activated factor IIa (thrombin) (Homo sapiens, UniProt P00734)
# protocol_description: Determination of activated factor II (FIIa, thrombin)-inhibitory activity (chromogenic substrate S-2238)
# experimental_context: negative logarithm of the concentration suppressing 50% of the reaction rate of the control, 0.125 U/ml thrombin
pIC50: −log10 of the molar value.
measure_name: pIC50

INSERT INTO measurements (compound, measure_name, assay_value) VALUES
  ('N=C(N)c1cccc(OCCOC(=O)c2ccc(OC3CCN(C(=N)N)CC3)cc2)c1 [Ex. 17, ditrifluoroacetate]', 'pIC50', '< 4.00'),
  ('COc1ccc(C(=N)N)cc1OCCOC(=O)c1ccc(C(=N)N2CCCC2)cc1 [Ex. 18, ditrifluoroacetate]', 'pIC50', '< 4.00'),
  ('N=C(N)c1cccc(OCCOC(=O)c2ccc(C(=N)N3CCCC3)nc2)c1 [Ex. 37, tritrifluoroacetate]', 'pIC50', '< 4.00');

###

paPTT2 values by entry
# Test system: human plasma
# protocol_description: Determination of anticoagulant activity (aPTT measurement method)
# experimental_context: negative logarithm of the concentration prolonging the aPTT of the control to two-fold
measure_name: paPTT2

INSERT INTO assay_data (molecule, measure_name, assay_value) VALUES
  ('COc1ccc(C(=N)N)cc1OCCOC(=O)c1ccc(C(=N)N2CCCC2)cc1 [Ex. 18, ditrifluoroacetate]', 'paPTT2', 5.2),
  ('N=C(N)c1cccc(OCCOC(=O)c2ccc(C(=N)N3CCCC3)nc2)c1 [Ex. 37, tritrifluoroacetate]', 'paPTT2', 5.2),
  ('CC(=N)N1CCC(Oc2ccc(C(=O)OCCOc3cccc(C(=N)N)c3)cc2)CC1 [Ex. 16, ditrifluoroacetate]', 'paPTT2', 5.4);

The origin of these recorded values is patent US8227506B2.
